Origin of values: patent US20260015358A1

Target: WRN [UniPro: Q14191 (WRN_HUMAN), N500-C946] (Homo sapiens (Human))
Sequence (Q14191 500-946): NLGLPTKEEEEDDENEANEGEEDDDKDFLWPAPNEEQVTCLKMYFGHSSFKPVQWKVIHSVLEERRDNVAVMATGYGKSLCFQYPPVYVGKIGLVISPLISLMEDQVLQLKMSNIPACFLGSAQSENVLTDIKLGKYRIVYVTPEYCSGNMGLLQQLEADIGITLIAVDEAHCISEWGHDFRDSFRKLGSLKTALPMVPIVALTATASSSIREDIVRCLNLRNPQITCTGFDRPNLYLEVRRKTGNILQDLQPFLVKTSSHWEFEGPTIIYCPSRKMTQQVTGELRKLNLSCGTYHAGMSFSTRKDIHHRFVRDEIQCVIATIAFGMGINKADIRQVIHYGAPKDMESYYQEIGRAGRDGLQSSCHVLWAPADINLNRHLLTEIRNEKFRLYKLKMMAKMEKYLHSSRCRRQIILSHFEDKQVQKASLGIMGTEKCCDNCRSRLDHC
Test: WRN ATPase assay (ADP-Glo)
Type: biochemical
Settings: WRN enzymatic activity assay
Listed compounds paired with reported IC50

Please review the following examples before continuing.
Exercise: Need IC50 of `CCc1c(N2CCN(C(=O)CNC(=O)[C@@H]3CCCO3)CC2)c(=O)n2nc(C3=CCOCC3)nc2n1CC(=O)Nc1ccc(C(F)(F)F)cc1Cl` , thanks.
Solution: < 100 nM

Exercise: Thanks! And `CCc1c(N2CCN(C(=O)CNc3ncnc4cccnc34)CC2)c(=O)n2nc(C3=CCOCC3)nc2n1CC(=O)Nc1ccc(C(F)(F)F)cc1Cl` ?
Solution: 100 to 1000 nM

Exercise: Thanks! And `CCc1c(N2CCN(C(=O)CNC(=O)c3cc(F)cc(NC)c3)CC2)c(=O)n2nc(C3=CCOCC3)nc2n1CC(=O)Nc1ccc(C(F)(F)F)cc1Cl` ?
Solution: < 100 nM

Exercise: Thanks! And `CCc1c(N2CCN(S(=O)(=O)CC)CC2)c(=O)n2nc(C3=CCOCC3)nc2n1CC(=O)Nc1ccc(C(F)(F)F)cc1Cl` ?
Solution: 100 to 1000 nM

Exercise: Thanks! And `CCc1c(N2CCN(C(=O)c3sc4cnccc4c3N)CC2)c(=O)n2nc(C3=CCOCC3)nc2n1CC(=O)Nc1ccc(C(F)(F)F)cc1Cl` ?
Solution: 100 to 1000 nM

Next:
Exercise: Need IC50 of `CCc1c(N2CCN(C(=O)CNC(=O)c3ccn(C)n3)CC2)c(=O)n2nc(C3=CCOCC3)nc2n1CC(=O)Nc1ccc(C(F)(F)F)cc1Cl` , thanks.
Solution: < 100 nM

Exercise: Thanks! And `CCc1c(N2CCN(C(=O)CNC(=O)Nc3cc(F)cc(F)c3)CC2)c(=O)n2nc(C3=CCOCC3)nc2n1CC(=O)Nc1ccc(C(F)(F)F)cc1Cl` ?
Solution: < 100 nM

Exercise: Thanks! And `CCc1c(N2CCN(C(=O)C(=O)N3CCCC3)CC2)c(=O)n2nc(C3=CCOCC3)nc2n1CC(=O)Nc1ccc(C(F)(F)F)cc1Cl` ?
Solution: 100 to 1000 nM

Exercise: Thanks! And `CCc1c(N2CCN(C(=O)CNC(=O)c3ccccc3F)CC2)c(=O)n2nc(C3=CCOCC3)nc2n1CC(=O)Nc1cc(Br)cs1` ?
Solution: < 100 nM

Exercise: Thanks! And `CCc1c(N2CCN(C(=O)CNC(=O)c3nccs3)CC2)c(=O)n2nc(C3=CCOCC3)nc2n1CC(=O)Nc1ccc(C(F)(F)F)cc1F` ?
Solution: < 100 nM

Exercise: Thanks! And `CCc1c(N2CCN(C(=O)c3cnn4ccnc4c3O)CC2)c(=O)n2nc(C3=CCOCC3)nc2n1CC(=O)Nc1ccc(C(F)(F)F)cc1Cl` ?
Solution: < 100 nM

Exercise: Thanks! And `CCc1c(N2CCN(C(=O)CNC(=O)c3ccc(F)c(F)c3O)CC2)c(=O)n2nc(C3=CCOCC3)nc2n1CC(=O)Nc1ccc(C(F)(F)F)cc1F` ?
Solution: < 100 nM
